- Assay Notes: physchem
- Condition Context: pbte:d5w
Observed Property: solubility

Documented solubility of Cc1oncc1C(=O)Nc1ccc(C(F)(F)F)cc1 : ~5000 µg/mL

###

- Assay Notes: C6 glioma SC xenograft in mice
- Assay type: in vivo
- Condition Context: rat, in vivo, ip, 20 mg/kg
Observed Property: mortality (%)
Give a bare numeral; the unit % is implied.

Documented mortality of Cc1cc2nc(-c3ccccc3)c(-c3ccc(O)c(O)c3)nc2cc1C : 0

Documented mortality of c1ccc(-c2cnc3cc4ccccc4cc3n2)cc1 : 0

###

- System Under Test: PDGF-R (U1242) (Homo sapiens, UniProt P09619)
- Construct: U1242 (PDGF-β receptor); host or cells: U1242 MG glioma cells
- Sequence (P09619 33-1106): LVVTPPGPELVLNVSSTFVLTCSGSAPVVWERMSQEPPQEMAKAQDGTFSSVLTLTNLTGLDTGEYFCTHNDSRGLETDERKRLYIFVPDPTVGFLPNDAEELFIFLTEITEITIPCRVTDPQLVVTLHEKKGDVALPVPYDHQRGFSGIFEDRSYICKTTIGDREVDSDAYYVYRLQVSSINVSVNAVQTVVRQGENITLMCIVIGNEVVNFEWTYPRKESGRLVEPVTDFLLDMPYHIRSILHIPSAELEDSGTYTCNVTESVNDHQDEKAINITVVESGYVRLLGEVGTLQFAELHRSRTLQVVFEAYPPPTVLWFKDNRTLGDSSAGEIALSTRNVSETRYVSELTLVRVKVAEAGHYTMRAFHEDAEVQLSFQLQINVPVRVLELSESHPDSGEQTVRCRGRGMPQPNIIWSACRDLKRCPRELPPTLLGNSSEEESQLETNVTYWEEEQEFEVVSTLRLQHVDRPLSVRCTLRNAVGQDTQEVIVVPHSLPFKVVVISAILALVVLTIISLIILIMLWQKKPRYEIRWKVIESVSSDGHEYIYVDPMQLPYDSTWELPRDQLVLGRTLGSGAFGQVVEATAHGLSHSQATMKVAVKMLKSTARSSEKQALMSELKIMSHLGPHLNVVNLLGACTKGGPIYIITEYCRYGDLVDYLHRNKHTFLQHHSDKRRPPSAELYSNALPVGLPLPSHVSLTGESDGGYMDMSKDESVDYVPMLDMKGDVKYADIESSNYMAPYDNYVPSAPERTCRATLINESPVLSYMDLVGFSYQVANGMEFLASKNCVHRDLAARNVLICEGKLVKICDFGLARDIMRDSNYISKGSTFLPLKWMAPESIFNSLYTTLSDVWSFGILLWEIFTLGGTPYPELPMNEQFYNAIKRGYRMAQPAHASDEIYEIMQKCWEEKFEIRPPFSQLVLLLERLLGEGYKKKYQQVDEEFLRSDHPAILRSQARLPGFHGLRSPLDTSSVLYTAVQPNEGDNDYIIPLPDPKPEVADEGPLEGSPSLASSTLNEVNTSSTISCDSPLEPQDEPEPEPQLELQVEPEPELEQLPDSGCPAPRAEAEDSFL
- Assay Notes: U1242 kinase (PDGF-R activity)
- Assay type: cell-based
- Condition Context: scndry; read-out: U1242 KINASE IC50 (scndry)
Observed Property: IC50 (µM)
Give a bare numeral; the unit µM is implied.

Field IC50 (PDGF-R (U1242) (Homo sapiens, UniProt P09619)), entry Cc1cc2ncc(Nc3cccc(Br)c3)nc2cc1C : 16.4
